measured target: Glucocorticoid receptor (Homo sapiens)
Sequence (whole entry): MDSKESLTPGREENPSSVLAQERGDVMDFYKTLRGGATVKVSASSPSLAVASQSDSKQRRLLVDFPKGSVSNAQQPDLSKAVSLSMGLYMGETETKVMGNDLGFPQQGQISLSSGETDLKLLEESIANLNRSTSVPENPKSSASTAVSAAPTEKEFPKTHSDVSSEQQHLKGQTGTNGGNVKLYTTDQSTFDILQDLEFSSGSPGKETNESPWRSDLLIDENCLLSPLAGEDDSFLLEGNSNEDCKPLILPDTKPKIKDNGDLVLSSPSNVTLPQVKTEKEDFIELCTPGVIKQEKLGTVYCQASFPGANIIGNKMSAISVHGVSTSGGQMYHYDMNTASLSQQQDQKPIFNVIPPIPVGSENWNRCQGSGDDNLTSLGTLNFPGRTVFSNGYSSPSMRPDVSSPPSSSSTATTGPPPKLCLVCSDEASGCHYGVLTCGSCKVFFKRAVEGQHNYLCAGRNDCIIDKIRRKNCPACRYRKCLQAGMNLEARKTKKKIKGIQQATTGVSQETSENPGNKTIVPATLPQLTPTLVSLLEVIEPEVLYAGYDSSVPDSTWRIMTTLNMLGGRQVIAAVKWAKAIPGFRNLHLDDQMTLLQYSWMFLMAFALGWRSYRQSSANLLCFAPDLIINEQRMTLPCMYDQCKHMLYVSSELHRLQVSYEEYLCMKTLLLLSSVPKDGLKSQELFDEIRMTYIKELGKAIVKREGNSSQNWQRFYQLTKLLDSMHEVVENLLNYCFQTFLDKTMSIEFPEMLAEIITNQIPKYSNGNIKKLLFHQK
test: Transcriptional activation in CV-1 cells expressing human glucocorticoid receptor compared to Dexamethasone
Type: functional, cell-based
property label: Efficacy (%)

• C=CCC1Oc2cccc(CO)c2-c2ccc3c(c21)C(C)=CC(C)(C)N3 (stereo not given) = 69
• C=CCC1Oc2cccc(SC)c2-c2ccc3c(c21)C(C)=CC(C)(C)N3 (stereo not given) = 60
• C=CCC1Oc2cccc(OC(F)F)c2-c2ccc3c(c21)C(C)=CC(C)(C)N3 (stereo not given) = 70
• C=CCC1Oc2cccc(OC)c2-c2ccc3c(c21)C(C)=CC(C)(C)N3 (stereo not given) [AL-43] = 68
• C=CCC1Oc2ccccc2-c2ccc3c(c21)C(C)=CC(C)(C)N3 (stereo not given) = 2
• C=CCC1Oc2cccc(OCC)c2-c2ccc3c(c21)C(C)=CC(C)(C)N3 (stereo not given) = 0
• C=CCC1Oc2cccc(CN)c2-c2ccc3c(c21)C(C)=CC(C)(C)N3 (stereo not given) = 7
• C=CCC1Oc2cccc(NC)c2-c2ccc3c(c21)C(C)=CC(C)(C)N3 (stereo not given) = 60
• C=CCC1Oc2cccc(C=C)c2-c2ccc3c(c21)C(C)=CC(C)(C)N3 (stereo not given) = 50
• C#Cc1cccc2c1-c1ccc3c(c1C(CC=C)O2)C(C)=CC(C)(C)N3 (stereo not given) = 92

These data points were gathered from ChEMBL document CHEMBL1144889.
